Assay: in vivo
Conditions: Sprague-Dawley, rat, po, 10 mg/kg
quantity: half-life at 24 h
A complete answer gives the number followed by the unit.

GET /value?item= CCS(=O)(=O)n1cc(-c2nc(Nc3ccc4c(ccn4CCN(C)C)c3)ncc2C(F)(F)F)c2ccccc21 &field=half-life at 24 h returns 5.37 h

----------
Assay: in vivo
Details: Sprague-Dawley, rat, po, 10 mg/kg
quantity: Cmax at 24 h (ng/mL)
Kindly answer with a numeric value in ng/mL, unit omitted.

Recorded result, CCS(=O)(=O)n1cc(-c2nc(Nc3ccc4c(ccn4CCN(C)C)c3)ncc2C(F)(F)F)c2ccccc21 , Cmax at 24 h: 54.7

----------
Assay: in vivo
Conditions: Sprague-Dawley, rat, po, 10 mg/kg
quantity: CL/F at 24 h (mL/min/kg)
Note: unit mL/min/kg is implicit; provide only the numeric part.

Data point: CCS(=O)(=O)n1cc(-c2nc(Nc3ccc4c(ccn4CCN(C)C)c3)ncc2C(F)(F)F)c2ccccc21 ; CL/F at 24 h = 278

Data provenance: ChEMBL document CHEMBL5338765
